target: T1, human TMEM106B (human, UniProt Q9NUM4 2-274); assay: FACS HeLa
T1 construct: full-length, transiently expressed on HEK293 cells, or natively expressed on HeLa, U251 and A549 cells (the cell is named under assay); also the source of the Pepscan peptides; also called huTMEM106B; huTMEM
measurement.type: MFI

- binder: "TM-22 (antibody, V domains shown) VH: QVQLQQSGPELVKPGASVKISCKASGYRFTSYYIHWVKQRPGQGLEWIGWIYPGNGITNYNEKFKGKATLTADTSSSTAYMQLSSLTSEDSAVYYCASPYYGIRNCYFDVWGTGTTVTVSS VL: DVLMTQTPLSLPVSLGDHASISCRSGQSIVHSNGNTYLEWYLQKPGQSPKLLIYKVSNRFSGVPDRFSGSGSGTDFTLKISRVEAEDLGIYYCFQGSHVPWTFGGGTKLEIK"
  MFI: "408 MFI"

Can you look up the measured MFI of TM-7 (antibody, V domains shown) VH: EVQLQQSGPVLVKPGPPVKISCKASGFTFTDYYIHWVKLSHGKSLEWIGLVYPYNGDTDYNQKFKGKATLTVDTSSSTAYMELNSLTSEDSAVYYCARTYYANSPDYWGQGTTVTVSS VL: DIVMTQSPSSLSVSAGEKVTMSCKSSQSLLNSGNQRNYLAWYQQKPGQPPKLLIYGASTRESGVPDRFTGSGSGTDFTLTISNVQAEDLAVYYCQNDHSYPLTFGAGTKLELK for me?
1070 MFI
